Data credit: the supplement of paper PMC5908809

Overview of recorded percent inhibition of viability for various compounds
- System: normal primary NK cells, pool 2 (3 donors) (IL-2 2.5 ng/mL)
- Assay text: percent inhibition of viability; higher = more inhibition
- Particulars: 72 h; 100 nM
Give the value in % but do not write % after it.

Answered examples (3):
Cn1nnc2c(C(N)=O)ncn2c1=O [Temozolomide] (max concentration tested 100000 nM); -9.61
Cc1c(Cn2c(C)nc3c(C(=O)O)cc(N4CCOCC4)cc32)cccc1C(F)(F)F (max concentration tested 10000 nM); -1.99
Cc1c(C(=O)Nc2ccc(N3C[C@@H](C)O[C@@H](C)C3)nc2)cccc1-c1ccc(OC(F)(F)F)cc1 [Sonidegib] (max concentration tested 10000 nM); 1.51

Request: # get_value(readout= percent inhibition of viability, system= normal primary NK cells, pool 2 (3 donors) (IL-2 2.5 ng/mL)) for COc1cc2ncnc(Nc3ccc(F)c(Cl)c3)c2cc1NC(=O)/C=C/CN1CCCCC1 [Dacomitinib] (max concentration tested 1000 nM)
Response: -4.15

###

- Tested on: KHYG-1 (IL-2 2.5 ng/mL)
- Assay text: relative IC50 (inflection point of fitted viability curve, relative to fitted max inhibition); higher = less sensitive
- Particulars: 72 h
Test readout: relative IC50 (µM)
Use µM as the unit, but write only the number.

Solved cases (4 shown):
Cc1cc(Nc2cc(N3CCN(C)CC3)nc(/C=C/c3ccccc3)n2)n[nH]1; 0.482
Cc1nc(N)sc1-c1ccnc(Nc2ccc(N3CCOCC3)cc2)n1; 0.599
C/C(=C\c1csc(C)n1)[C@@H]1C[C@@H]2O[C@]2(C)CCC[C@H](C)[C@H](O)[C@@H](C)C(=O)C(C)(C)[C@@H](O)CC(=O)N1 [Ixabepilone]; 0.301
Cc1ccc(NC(=O)c2ccc(CN3CCN(C)CC3)cc2)cc1Nc1nccc(-c2cccnc2)n1; 3.08

Request: Provide value of relative IC50 for this record tested with KHYG-1 (IL-2 2.5 ng/mL): "COc1ccccc1S(=O)(=O)Nc1ccc2c(c1)CN(C)C(=O)N2"
Response: 1.64

Request: Please state recorded relative IC50 (tested on KHYG-1 (IL-2 2.5 ng/mL)) of "CNC(=O)c1nn(C)c2c1C(C)(C)Cc1cnc(Nc3ccc(N4CCN(C)CC4)cc3)nc1-2"
Response: 0.278

Request: Please provide the recorded relative IC50 for COc1ccc(COc2cc3oc(=O)c4cc(C(C)O)ccc4c3cc2OC)cc1 (stereo not drawn) , tested on KHYG-1 (IL-2 2.5 ng/mL).
Response: 1.96

###

- Tested on: NKL (IL-2 2.5 ng/mL)
- Assay text: percent inhibition of viability; higher = more inhibition
- Particulars: 72 h; 1000 nM
Test readout: percent inhibition of viability (%)
Report the figure in % without appending any unit label.

In the examples that follow, each entry is paired with its recorded percent inhibition of viability.
CCc1c(C(=O)C(N)=O)c2c(OCC(=O)O)cccc2n1Cc1ccccc1 [Varespladib] (max concentration tested 10000 nM); 2.87
C/C(=C\c1csc(C)n1)[C@@H]1C[C@@H]2O[C@]2(C)CCC[C@H](C)[C@H](O)[C@@H](C)C(=O)C(C)(C)[C@@H](O)CC(=O)N1 [Ixabepilone] (max concentration tested 1000 nM); 87.4
COc1cc2c(cc1-c1c(C)noc1C)ncc1[nH]c(=O)n([C@H](C)c3ccccn3)c12 [I-BET151] (max concentration tested 10000 nM); 58.9

Request: Item COc1cc2nccc(Oc3ccc(NC(=O)C4(C(=O)Nc5ccc(F)cc5)CC4)cc3)c2cc1OC [Cabozantinib] (max concentration tested 1000 nM) has what recorded percent inhibition of viability?
Response: 19.2

Request: State the recorded percent inhibition of viability for this entry: CN1CCN(CCOc2cc(OC3CCOCC3)c3c(Nc4c(Cl)ccc5c4OCO5)ncnc3c2)CC1 [Saracatinib] (max concentration tested 10000 nM)
Response: -5.02

###

- Tested on: NK-92 (IL-2 2.5 ng/mL)
- Assay text: relative IC50 (inflection point of fitted viability curve, relative to fitted max inhibition); higher = less sensitive
- Particulars: 72 h
As shown below, each of these compounds has a reported relative IC50 value.
Only the number, expressed in µM, is required.

COc1ccc(-c2ccc3ncc4c(c3c2)n(-c2ccc(N3CCNCC3)c(C(F)(F)F)c2)c(=O)n4C)cn1 [NVP-BGT226]; 0.0298

Request: Bench note: what relative IC50 did "Cc1ccc(C(=O)N(CCCN)[C@@H](c2oc3cc(Cl)ccc3c(=O)c2Cc2ccccc2)C(C)C)cc1" show?
Response: 0.0209

Request: Using the record for CCC/C=C/C=C/C(=O)O[C@H]1/C(=C/C(=O)OC)C[C@H]2C[C@H]([C@@H](C)O)OC(=O)C[C@H](O)C[C@@H]3C[C@H](OC(C)=O)C(C)(C)[C@](O)(C[C@@H]4C/C(=C/C(=O)OC)C[C@H](/C=C/C(C)(C)[C@]1(O)O2)O4)O3 [Bryostatin 1] , report its relative IC50.
Response: 0.00023

Request: Which relative IC50 is listed for O=C(Nc1c[nH]nc1-c1nc2ccc(CN3CCOCC3)cc2[nH]1)NC1CC1 [AT9283] ?
Response: 0.0658

Request: Any idea what relative IC50 was measured for Cc1cc(Nc2cc(N3CCN(C)CC3)nc(/C=C/c3ccccc3)n2)n[nH]1 [ENMD-2076] ?
Response: 0.901

Request: Can you look up the measured relative IC50 of C/C(=C\c1csc(C)n1)[C@@H]1C[C@@H]2O[C@]2(C)CCC[C@H](C)[C@H](O)[C@@H](C)C(=O)C(C)(C)[C@@H](O)CC(=O)N1 [Ixabepilone] for me?
Response: 0.398

Request: Entry CCOc1cc2ncc(C#N)c(Nc3ccc(F)c(Cl)c3)c2cc1NC(=O)/C=C/CN(C)C [Pelitinib] : reported relative IC50 = ?
Response: 0.51

Request: Field request: relative IC50 | item: Nc1cc(F)ccc1NC(=O)/C=C/c1cnn(C/C=C/c2ccccc2)c1 [RGFP966]
Response: 1.68

###

This listing pairs compounds with measured percent inhibition of viability.
- Tested on: normal primary NK cells, pool 3 (3 donors) (IL-2 2.5 ng/mL)
- Assay text: percent inhibition of viability; higher = more inhibition
- Particulars: 72 h; 10000 nM
Record the value in %, omitting the unit from your answer.

Would you please look over these solved cases?
O=C(NC1CCNCC1)c1n[nH]cc1NC(=O)c1c(Cl)cccc1Cl [AT7519] (max concentration tested 10000 nM); 98.8
CC(C)(C#N)c1cc(Cn2cncn2)cc(C(C)(C)C#N)c1 [Anastrozole] (max concentration tested 10000 nM); -5.25
Cc1ccc(NC(=O)c2ccc(CN3CCN(C)CC3)cc2)cc1Nc1nccc(-c2cccnc2)n1 [Imatinib] (max concentration tested 10000 nM); 31.7
Nc1ncnc2c1c(COc1cccc(Cl)c1)nn2C1CCOCC1 (max concentration tested 10000 nM); 13
Cc1c(C(=O)Nc2ccc(N3C[C@@H](C)O[C@@H](C)C3)nc2)cccc1-c1ccc(OC(F)(F)F)cc1 [Sonidegib] (max concentration tested 10000 nM); -0.38

Request: For the compound O[C@H]1CC[C@H](Nc2ncc3nc(Nc4c(F)cc(F)cc4F)n([C@H]4CCOC4)c3n2)CC1 [Tanzisertib] (max concentration tested 10000 nM) , what percent inhibition of viability is on record?
Response: 3.78

###

- Test system: YT (IL-2 2.5 ng/mL)
- Assay text: percent inhibition of viability; higher = more inhibition
- Particulars: 72 h; 10 nM
Test readout: percent inhibition of viability (%)
// return numeric value only (unit: %, not printed)

COc1cc2ncnc(Nc3ccc(F)c(Cl)c3)c2cc1NC(=O)/C=C/CN1CCCCC1 [Dacomitinib] (max concentration tested 1000 nM); 7.83
CC(C)(C#N)c1cc(Cn2cncn2)cc(C(C)(C)C#N)c1 [Anastrozole] (max concentration tested 10000 nM); -6.8

Request: Please report the recorded percent inhibition of viability for CON(C)C(=O)N1N=C(c2cc(F)ccc2F)S[C@@]1(CCCN)c1ccccc1 [ARRY-520] (max concentration tested 1000 nM) .
Response: 7.04

Request: Data request, read-out percent inhibition of viability, for O=C(O)c1ccc2c(c1)nc(Nc1cccc(Cl)c1)c1ccncc12 [Silmitasertib] (max concentration tested 10000 nM)
Response: 5.15

Request: // percent inhibition of viability lookup, key: C#Cc1cccc(Nc2ncnc3cc(OCCOC)c(OCCOC)cc23)c1 [Erlotinib] (max concentration tested 10000 nM)
Response: 6.57

Request: Please look up its percent inhibition of viability: COc1cc2ncnc(Oc3cccc(NC(=O)Nc4cc(C(C)(C)C(F)(F)F)on4)c3)c2cc1OC (max concentration tested 10000 nM)
Response: 0.07

###

- System: YT (IL-2 2.5 ng/mL)
- Assay text: percent inhibition of viability; higher = more inhibition
- Particulars: 72 h; 1000 nM
Test readout: percent inhibition of viability (%)
Field format: number, assumed %, no unit text.

Some entries whose results are on file:
COc1ccc(-c2nc(N3CCOCC3)c3sc(CN(C)c4ncc(C(=O)NO)cn4)cc3n2)cn1 [CUDC-907] (max concentration tested 10000 nM); 104
CCNC(=O)c1noc(-c2cc(C(C)C)c(O)cc2O)c1-c1ccc(CN2CCOCC2)cc1 [Luminespib] (max concentration tested 1000 nM); 92.1

Request: What measured percent inhibition of viability goes with O=C(NOC[C@H](O)CO)c1ccc(F)c(F)c1Nc1ccc(I)cc1F (max concentration tested 1000 nM) ?
Response: 4.12

Request: Requested field: percent inhibition of viability. Item: COc1ccccc1S(=O)(=O)Nc1ccc2c(c1)CN(C)C(=O)N2 [PFI-1] (max concentration tested 10000 nM)
Response: 5.52
